All figures here come from ChEMBL document CHEMBL1201862.

target-or-test-system: DNA dC->dU-editing enzyme APOBEC-3G (Homo sapiens)
Sequence (Q9HC16 whole entry): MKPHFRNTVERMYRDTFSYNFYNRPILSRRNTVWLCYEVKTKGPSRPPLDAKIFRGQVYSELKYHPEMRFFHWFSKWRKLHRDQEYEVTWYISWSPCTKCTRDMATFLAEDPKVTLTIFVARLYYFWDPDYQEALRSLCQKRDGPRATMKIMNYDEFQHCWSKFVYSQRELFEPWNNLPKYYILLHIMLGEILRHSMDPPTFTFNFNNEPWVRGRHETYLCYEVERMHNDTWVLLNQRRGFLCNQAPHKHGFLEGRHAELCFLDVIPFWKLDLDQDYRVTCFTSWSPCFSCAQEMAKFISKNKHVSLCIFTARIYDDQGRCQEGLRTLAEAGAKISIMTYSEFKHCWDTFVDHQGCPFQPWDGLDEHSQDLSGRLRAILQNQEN
test-method-notes: Dose Response confirmation of small molecule APOBEC3G DNA Deaminase Inhibitors via a fluorescence-based single-stranded DNA deaminase assay. [Related pubchem assays (depositor defined):AID493012, AID493028]
Type: functional
Activity calls are given as the source filed them. Rule as the data show it: actives have a measured IC50 and inactives only a lower limit.
Hello, when you answer, please use one of the following outcomes: Y for active, N for inactive

Worked examples, 3 molecules total:
>>> class("COCCCN=C(S)NN=C(S)Nc1ccc(F)cc1F")
"Y"
>>> class("COc1ccc2c(C)cc3n[nH]c(=S)n3c2c1")
"N"
>>> class("COC(=O)Cc1sc(-c2ccccn2)nc1-c1ccccc1")
"Y"

What classification did Nc1nnc(S)n1-c1ccc(Cl)cc1 end up with in this test?
Y

What classification did O=[N+]([O-])c1ccccc1/C=N/n1c(S)nnc1-c1ccccc1 end up with in this test?
Y

What classification did O=C(/C=C/c1ccccc1)Nc1cccc(S(=O)(=O)Nc2ccccc2F)c1 end up with in this test?
Y

What classification did Nc1ccccc1SSc1ccccc1N end up with in this test?
Y

What classification did CC1(C)O[C@@H]2[C@H](O1)[C@@H](COS(=O)(=O)O)O[C@H]2n1c(S)nc2c(O)nc(N)nc21 end up with in this test?
Y

* * *

For each record, write down the corresponding IC50.
target-or-test-system: Nucleotide-binding oligomerization domain-containing protein 1 (Homo sapiens, UniProt Q9Y239)
Sequence (Q9Y239 whole entry, the tested form may be a part): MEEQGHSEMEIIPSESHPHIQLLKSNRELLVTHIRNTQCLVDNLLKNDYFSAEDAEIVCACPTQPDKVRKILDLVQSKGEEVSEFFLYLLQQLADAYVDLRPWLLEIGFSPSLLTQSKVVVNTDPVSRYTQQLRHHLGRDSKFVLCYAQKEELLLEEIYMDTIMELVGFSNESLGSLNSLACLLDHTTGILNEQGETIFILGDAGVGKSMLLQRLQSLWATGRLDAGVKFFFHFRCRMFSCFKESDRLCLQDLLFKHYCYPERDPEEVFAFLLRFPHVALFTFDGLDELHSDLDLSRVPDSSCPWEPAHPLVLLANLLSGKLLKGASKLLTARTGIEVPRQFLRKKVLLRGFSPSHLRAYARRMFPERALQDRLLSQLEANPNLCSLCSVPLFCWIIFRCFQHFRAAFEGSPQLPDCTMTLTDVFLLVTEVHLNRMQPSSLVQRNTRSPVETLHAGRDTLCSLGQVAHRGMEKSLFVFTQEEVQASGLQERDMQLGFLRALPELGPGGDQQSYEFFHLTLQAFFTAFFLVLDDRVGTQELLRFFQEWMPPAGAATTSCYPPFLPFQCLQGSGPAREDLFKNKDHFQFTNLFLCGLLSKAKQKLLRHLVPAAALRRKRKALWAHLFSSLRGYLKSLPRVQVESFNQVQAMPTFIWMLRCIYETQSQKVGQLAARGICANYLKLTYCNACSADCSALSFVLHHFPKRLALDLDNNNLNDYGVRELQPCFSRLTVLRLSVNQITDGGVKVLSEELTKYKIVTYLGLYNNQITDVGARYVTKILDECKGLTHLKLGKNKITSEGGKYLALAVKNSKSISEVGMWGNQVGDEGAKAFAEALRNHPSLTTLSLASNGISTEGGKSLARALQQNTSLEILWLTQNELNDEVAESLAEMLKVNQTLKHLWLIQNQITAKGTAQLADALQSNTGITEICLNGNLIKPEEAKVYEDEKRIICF
test-method-notes: NOD1 signaling inhibitors, SAR follow-up, revised (AID 2333)
Format: functional
Activity calls are given as the source filed them. No stated cut-off is given here; in the data, actives have a measured IC50 and inactives only a lower limit.

>>> test_value("NC(=O)C1CCN(c2ccc(S(=O)(=O)N3CCC(Cc4ccccc4)CC3)cn2)CC1")
"5.76 µM (active)"
>>> test_value("CC(=O)Nc1ccc(NC(=O)c2ccc(CN3CCc4ccccc4C3)cc2)cc1")
"> 20 µM (inactive)"
>>> test_value("CC(Nc1ncnc2sccc12)c1ccccc1 (centres undefined)")
"1.55 µM (active)"

Would you kindly look at the next entry?
Would you mind telling me what IC50 value was observed for Cc1ccc(C(=O)ON=C(N)c2ccccn2)c(C)c1 ?
0.772 µM (active)

* * *

target-or-test-system: Carboxy-terminal domain RNA polymerase II polypeptide A small phosphatase 1 (Homo sapiens)
Sequence (Q9GZU7 whole entry, the tested form may be a part): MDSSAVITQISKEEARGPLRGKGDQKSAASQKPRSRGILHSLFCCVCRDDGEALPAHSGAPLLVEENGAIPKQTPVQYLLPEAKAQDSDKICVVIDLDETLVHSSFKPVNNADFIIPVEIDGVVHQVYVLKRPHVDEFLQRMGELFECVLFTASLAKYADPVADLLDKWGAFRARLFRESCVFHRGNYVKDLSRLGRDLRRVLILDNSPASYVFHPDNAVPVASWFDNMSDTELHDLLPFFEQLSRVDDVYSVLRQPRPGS
test-method-notes: inhibitors of CTDSP1, concentration-response testing, biochemical assay, absorbance-based, actives from ultra-high-throughput screening (AID 540297)
Assay type: functional
Active and inactive are the calls of the source. Rule as the data show it: actives have a measured IC50 and inactives only a lower limit.
measured-endpoint: IC50

>>> test_value("C=C(C)C(=O)Nc1cccc(C2=NOC3(C2)C[C@@H](C(N)=O)N(C(=O)C2(C)CC2)C3)c1 (some centres not stated)")
"0.408 µM (active)"
>>> test_value("CC12CCC(C[N+](C)(C)C1)C2(C)C (configuration not stated)")
"5.62 µM (active)"
>>> test_value("Cc1ccc(NC(=O)CN2C(=O)S/C(=C\\c3cccn3-c3cccc(C(=O)O)c3)C2=O)cc1C")
"3.28 µM (active)"
>>> test_value("N#C/C(=C\\c1ccc(OC(=O)c2ccc(Cl)s2)cc1)c1nc2ccccc2[nH]1")
"1.77 µM (active)"
>>> test_value("CCCc1nc(-c2cc3cc(C)ccc3[nH]c2=O)no1")
"12.8 µM (active)"

Quick request: IC50 for each listed item, please.
1. Cc1cc(N=NC(=O)c2ccccc2O)c2ccccc2c1O
2. CCNc1nc(NCC)n2c(SCC(=O)Nc3ccc(F)cc3)nnc2n1

1. 5.15 µM (active)
2. 10.3 µM (active)
